Tested on: PANC-1
Test: SRB colorimetric assay of cell growth and viability, PANC-1
Type: cell-based, human
Settings: 48 hours exposure
Protocol: The finality of this assay is to interrupt the growth of a “in vitro” tumor cell culture by means a continued exhibition of the cells to the sample to be testing. […] Cells are seeded in 96 well microtiter plates, at 5×10^3 cells per well in aliquots of 195 μL medium, and they are allowed to attach to the plate surface by growing in drug free medium for 18 hours. […] Optical densities are read on a automated spectrophotometric plate reader at a single wavelength of 490 nm. […]
Where a SMILES comes first, the peptide text is derived from it. Bridges are numbered along the chain shown (N, C = ends). [ ]: non-standard residue; d: D form. The star is where a group is joined. d(aIle) = CC[C@H](C)[C@@H](N)C(=O)O; d(aThr) = C[C@@H](O)[C@@H](N)C(=O)O; Hexanoyl(5-Me) = CC(C)CCCC(=O)*; Orn = NCCC[C@H](N)C(=O)O; Dhb = C/C=C(\N)C(=O)O
# maps each entry to its GI50
attribute measured: GI50 (µM)

# compound, attribute measured, reading
records = [
    ("C/C=C1\\NC(=O)[C@H](Cc2ccccc2)NC(=O)[C@@H](C(C)C)NC(=O)[C@@H]([C@@H](C)CC)NC(=O)[C@H](NC(=O)[C@H](NC(=O)[C@H](CCCN)NC(=O)[C@H]2CCCN2C(=O)[C@H](NC(=O)[C@@H](NC(=O)[C@@H](NC(=O)[C@H](NC(=O)CCCCC(C)=O)C(C)C)[C@@H](C)O)C(C)C)C(C)C)[C@@H](C)CC)[C@@H](C)OC(=O)[C@H](C(C)C)NC1=O [Compound 27, [6-OHep^14]-KF]", "GI50", 6.7),
    ("C/C=C1\\NC(=O)[C@H](Cc2ccccc2)NC(=O)[C@@H](C(C)C)NC(=O)[C@@H](C(C)CC)NC(=O)[C@H](NC(=O)[C@H](NC(=O)[C@H](CCCN)NC(=O)[C@H]2CCCN2C(=O)[C@H](NC(=O)[C@@H](NC(=O)[C@@H](NC(=O)[C@H](NC(=O)CCC(C)CC)C(C)C)C(C)O)C(C)C)C(C)C)C(C)CC)C(C)OC(=O)[C@H](C(C)C)NC1=O (some centres unmarked) [Compound 1]", "GI50", 1.82),
    ("C/C=C1\\NC(=O)[C@H](Cc2ccccc2)NC(=O)[C@@H](C(C)C)NC(=O)[C@@H]([C@@H](C)CC)NC(=O)[C@H](NC(=O)[C@H](NC(=O)[C@H](CCCN)NC(=O)[C@H]2CCCN2C(=O)[C@H](NC(=O)[C@@H](NC(=O)[C@@H](NC(=O)[C@H](NC(=O)c2ccccc2)C(C)C)[C@@H](C)O)C(C)C)C(C)C)[C@@H](C)CC)[C@@H](C)OC(=O)[C@H](C(C)C)NC1=O [Compound 20, [Bza^14]-KF]", "GI50", 3.79),
    ("C/C=C1\\NC(=O)[C@H](Cc2ccccc2)NC(=O)[C@@H](C(C)C)NC(=O)[C@@H]([C@@H](C)CC)NC(=O)[C@H](NC(=O)[C@H](NC(=O)[C@H](CCCN)NC(=O)[C@H]2CCCN2C(=O)[C@H](NC(=O)[C@H](NC(=O)[C@@H](NC(=O)[C@H](NC(=O)CCCC(C)C)C(C)C)[C@@H](C)O)C(C)C)C(C)C)[C@@H](C)CC)[C@@H](C)OC(=O)[C@H](C(C)C)NC1=O [Compound 46, [D-Val^11]-KF]", "GI50", 3.12),
    ("C/C=C1\\NC(=O)[C@H](Cc2ccccc2)NC(=O)[C@@H](C(C)C)NC(=O)[C@@H]([C@@H](C)CC)NC(=O)[C@H](NC(=O)[C@H](NC(=O)[C@H](CCCN)NC(=O)[C@H]2CCCN2C(=O)[C@H](NC(=O)[C@@H](NC(=O)[C@@H](NC(=O)[C@H](NC(=O)CCCC(C)C)C(C)C)[C@@H](C)O)[C@@H](C)O)C(C)C)[C@@H](C)CC)[C@@H](C)OC(=O)[C@H](C(C)C)NC1=O [Compound 50, [Thr^11]-KF] ({Hexanoyl(5-Me)}-[dV]TT[dV][dP][Orn][d(aIle)][d(aThr)][d(aIle)][dV]F[Dhb]V; ester 8-C)", "GI50", 4.16),
]
